ASSAY_COMMENT: Metabolic stability in human liver microsomes
Type: in vitro ADME
ASSAY_CONDITIONS: pH 7.4, NADPH, 37° C.
Rule for this label: Condition met means microsomal CLint at 0.25 μM is less than 30 µL/min/mg; Condition not met means microsomal CLint at 0.25 μM is at least 30 µL/min/mg.

Prompt: Just wondering, is microsomal CLint at 0.25 μM of Cl.[2H]C1([2H])Oc2ccc(CC(CC)NC)cc2O1 (racemic) below 30 µL/min/mg?
Response: Condition met

Prompt: Just wondering, is microsomal CLint at 0.25 μM of Cl.[2H]C([2H])([2H])NC(CC)Cc1ccc2c(c1)OCO2 (racemic) below 30 µL/min/mg?
Response: Condition met

Prompt: Just wondering, is microsomal CLint at 0.25 μM of Cl.[2H]C([2H])([2H])NC(CC)Cc1ccc2c(c1)OC([2H])([2H])O2 (racemic) below 30 µL/min/mg?
Response: Condition not met

Prompt: Just wondering, is microsomal CLint at 0.25 μM of Cl.[2H]C1([2H])Oc2ccc(C[C@@H](CC)NC)cc2O1 below 30 µL/min/mg?
Response: Condition not met

Prompt: Just wondering, is microsomal CLint at 0.25 μM of Cl.[2H]C([2H])([2H])N[C@@H](CC)Cc1ccc2c(c1)OC([2H])([2H])O2 below 30 µL/min/mg?
Response: Condition met

Prompt: Just wondering, is microsomal CLint at 0.25 μM of Cl.[2H]C([2H])([2H])N[C@H](CC)Cc1ccc2c(c1)OCO2 below 30 µL/min/mg?
Response: Condition met

Prompt: Just wondering, is microsomal CLint at 0.25 μM of Cl.[2H]C([2H])([2H])N[C@@H](CC)Cc1ccc2c(c1)OCO2 below 30 µL/min/mg?
Response: Condition met

Prompt: Just wondering, is microsomal CLint at 0.25 μM of Cl.[2H]C1([2H])Oc2ccc(C[C@H](CC)NC)cc2O1 below 30 µL/min/mg?
Response: Condition met

Prompt: Just wondering, is microsomal CLint at 0.25 μM of Cl.[2H]C([2H])([2H])N[C@H](CC)Cc1ccc2c(c1)OC([2H])([2H])O2 below 30 µL/min/mg?
Response: Condition not met

* * *

ASSAY_COMMENT: Metabolic stability in human liver microsomes
Format: in vitro ADME
ASSAY_CONDITIONS: NADPH, 37° C.
Please go through the items and note down their CLint.
Answer format: numeric, μL/min/mg protein implied, no suffix.

Prompt: Report measured CLint; entry is COc1ccc2c(c1)[C@]13CCCC[C@@H]1[C@H](C2)N(C)CC3 [dextromethorphan]
Response: 53.4

Prompt: Report measured CLint; entry is CCC(Cc1ccc2c(c1)OCO2)NC.Cl (racemic) [rac-MBDB HCl salt]
Response: 11.9

Prompt: Report measured CLint; entry is CC[C@H](Cc1ccc2c(c1)OCO2)NC.Cl [R-MBDB HCl salt]
Response: 11.7

Prompt: Report measured CLint; entry is CC[C@@H](Cc1ccc2c(c1)OCO2)NC.Cl [S-MBDB HCl salt]
Response: 8.06
